Quick list: Population Mitochondria Different-Phenotype (%) per entry.
- Test system: U2OS
- experimental-protocol: Multiplex assay against U2OS
- Format: toxicity, cell-based
- test-conditions: human, 24 h, 1 µM, compound concentration 1 uM, replicate 1
recorded-endpoint: Population Mitochondria Different-Phenotype (%)

[[record]]
compound = "Cc1nc(Cc2cccc(C(F)(F)F)c2)sc1-c1ccc(C(N)=O)nc1 [TP-024n]"
subject_of_test = "U2OS"
observed_measurement = 8

[[record]]
compound = "Cc1cc2c(cc1N1C(=O)c3cccc4c(CCCO)ccc(c34)C1=O)n(C)c(=O)n2C"
subject_of_test = "U2OS"
observed_measurement = 18

[[record]]
compound = "CCc1cc2c(cc1CC)CC(NC[C@H](O)c1ccc(O)c3[nH]c(=O)ccc13)C2 [INDACATEROL]"
subject_of_test = "U2OS"
observed_measurement = 11

[[record]]
compound = "CCn1c(-c2nonc2N)nc2cnc(Oc3cccc(NC(=O)c4ccc(OCCN5CCOCC5)cc4)c3)cc21 [GSK-269962A]"
subject_of_test = "U2OS"
observed_measurement = 18

[[record]]
compound = "CN(C)C/C=C/C(=O)Nc1cc2c(Nc3ccc(F)c(Cl)c3)ncnc2cc1O[C@H]1CCOC1.O=C(O)/C=C\\C(=O)O.O=C(O)/C=C\\C(=O)O [AFATINIB DIMALEATE]"
subject_of_test = "U2OS"
observed_measurement = 10

[[record]]
compound = "CCCn1c(=O)c2[nH]c(C34CC5CC(CC3C5)C4)nc2n(CCC)c1=O [ROLOFYLLINE]"
subject_of_test = "U2OS"
observed_measurement = 5

[[record]]
compound = "c1ccc2oc(-c3csc(C4CCN(Cc5nc6ncccc6[nH]5)CC4)n3)cc2c1"
subject_of_test = "U2OS"
observed_measurement = 16

[[record]]
compound = "CNC(=O)c1cc(Oc2ccc(NC(=O)Nc3cc(C(C)(C)C)nn3-c3ccc4ncccc4c3)c(F)c2)ccn1 [REBASTINIB]"
subject_of_test = "U2OS"
observed_measurement = 28

[[record]]
compound = "CC(C)Oc1ccc(C(=O)N[C@H](CNC(=O)CN(C)C)Cc2ccc(-c3cn4cccc([C@H](C)O)c4n3)cc2)cc1Cl [GSK-923295A]"
subject_of_test = "U2OS"
observed_measurement = 19

[[record]]
compound = "CN(C)CCOc1ccc(-c2nc(-c3ccncc3)c(-c3ccc4c(c3)CC/C4=N\\O)[nH]2)cc1 [SB590885]"
subject_of_test = "U2OS"
observed_measurement = 34

[[record]]
compound = "Cl.Cl.NC1(c2ccc(-c3nc4ccn5c(=O)[nH]nc5c4cc3-c3ccccc3)cc2)CCC1"
subject_of_test = "U2OS"
observed_measurement = 11

[[record]]
compound = "Nc1nc2c(c(N3CCNCC3)n1)CCC1=C2[C@@H]2CCCC[C@@H]2O1"
subject_of_test = "U2OS"
observed_measurement = 4

[[record]]
compound = "CCOc1cc(N2CCC(O)CC2)ccc1Nc1ncc2c(n1)N(C1CCCC1)CCC(=O)N2C"
subject_of_test = "U2OS"
observed_measurement = 17

[[record]]
compound = "N#Cc1cnc(Nc2cc(NC[C@H]3CNCCO3)c(C(F)(F)F)cn2)cn1 [SRA-737]"
subject_of_test = "U2OS"
observed_measurement = 12

[[record]]
compound = "COc1ccc(NS(=O)(=O)c2sc3ccc(Cl)cc3c2C)cc1N1CCNCC1.Cl"
subject_of_test = "U2OS"
observed_measurement = 10

[[record]]
compound = "COc1cc2c(NC3CCN(C(C)C)CC3)nc(N3CCC(F)(F)CC3)nc2cc1OCCCN1CCCC1"
subject_of_test = "U2OS"
observed_measurement = 8

[[record]]
compound = "CCOc1cc2ncc(C#N)c(Nc3ccc(OCc4cccc(F)c4)c(Cl)c3)c2cc1NC(=O)/C=C/CN(C)C [HKI-357]"
subject_of_test = "U2OS"
observed_measurement = 16

